Cited source: paper PMC10958042

B1: ATGL (PNPLA2, patatin-like phospholipase domain-containing protein 2), human, full length / CGI-58 (ABHD5, 1-acylglycerol-3-phosphate O-acyltransferase ABHD5), human (parent)
chain 1: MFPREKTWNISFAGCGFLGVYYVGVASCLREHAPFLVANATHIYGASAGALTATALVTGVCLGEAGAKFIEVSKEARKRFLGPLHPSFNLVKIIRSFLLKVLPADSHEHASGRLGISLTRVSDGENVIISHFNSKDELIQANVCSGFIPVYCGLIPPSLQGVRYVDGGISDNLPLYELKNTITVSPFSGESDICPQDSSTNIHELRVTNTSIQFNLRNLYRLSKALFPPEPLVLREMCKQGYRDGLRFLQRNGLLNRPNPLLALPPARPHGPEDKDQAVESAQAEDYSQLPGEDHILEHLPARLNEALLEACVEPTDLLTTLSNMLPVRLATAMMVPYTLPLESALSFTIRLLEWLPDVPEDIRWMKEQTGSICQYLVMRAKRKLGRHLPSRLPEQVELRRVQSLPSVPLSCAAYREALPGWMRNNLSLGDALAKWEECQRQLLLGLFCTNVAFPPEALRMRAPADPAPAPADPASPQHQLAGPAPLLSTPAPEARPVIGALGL
chain 2: MAAEEEEVDSADTGERSGWLTGWLPTWCPTSISHLKEAEEKMLKCVPCTYKKEPVRISNGNKIWTLKFSHNISNKTPLVLLHGFGGGLGLWALNFGDLCTNRPVYAFDLLGFGRSSRPRFDSDAEEVENQFVESIEEWRCALGLDKMILLGHNLGGFLAAAYSLKYPSRVNHLILVEPWGFPERPDLADQDRPIPVWIRALGAALTPFNPLAGLRIAGPFGLSLVQRLRPDFKRKYSSMFEDDTVTEYIYHCNVQTPSGETAFKNMTIPYGWAKRPMLQRIGKMHPDIPVSVIFGARSCIDGNSGTSIQSLRPHSYVKTIAILGAGHYVYADQPEEFNQKVKEICDTVD

Variants of: B1
Assay: LUMIER: Protein A-ATGL variant and firefly luciferase-partner co-expressed in HEK293T, lysates immunoprecipitated on IgG-coated plates, co-precipitated partner measured as luciferase luminescence
Conditions: with CGI-58 (ABHD5, 1-acylglycerol-3-phosphate O-acyltransferase ABHD5), transient co-transfection, IgG-coated LUMITRAC plates, 2 h at 4 °C, three PBS washes, Bright-Glo luciferase reagent, triplicates per assay, two …, parent: 0.32, not graded, scale: log2 fold change of co-immunoprecipitated luminescence relative to wild-type ATGL within each experiment
// label = yes (1) if screen value is not less than -0.09, otherwise no (0)

Please review the entries below; each comes with its answer.
INSERT INTO assay_data (mutant_label, category_label) VALUES
  ('chain 1 P86K', 'no (0)'),
  ('chain 1 G189E', 'no (0)'),
  ('chain 1 I70A', 'no (0)'),
  ('chain 1 F35A', 'yes (1)'),
  ('chain 1 R351L', 'no (0)');

Inquiry: Is screen value for chain 1 Q396A at or above -0.09?
Reply text: no (0)

Inquiry: Is screen value for chain 1 R329E at or above -0.09?
Reply text: no (0)

Inquiry: Is screen value for chain 1 L62A at or above -0.09?
Reply text: no (0)

Inquiry: Is screen value for chain 1 G153A at or above -0.09?
Reply text: no (0)

Inquiry: Is screen value for chain 1 K92L at or above -0.09?
Reply text: no (0)

Inquiry: Is screen value for chain 1 S158A at or above -0.09?
Reply text: yes (1)

Inquiry: Is screen value for chain 1 L261E at or above -0.09?
Reply text: no (0)

Inquiry: Is screen value for chain 1 L102K at or above -0.09?
Reply text: no (0)

Inquiry: Is screen value for chain 1 R113K at or above -0.09?
Reply text: yes (1)

Inquiry: Is screen value for chain 1 N39E at or above -0.09?
Reply text: no (0)

Inquiry: Is screen value for chain 1 Q140A at or above -0.09?
Reply text: yes (1)

Inquiry: Is screen value for chain 1 S158E at or above -0.09?
Reply text: yes (1)
